- study_system: A2.1 HLA molecules (Homo sapiens, UniProt P04439, D140Y/D185E/D98H/E176V/E277Q/G131W/G231S/I119V/I121R/I166T/I218V/L300P/L318F/N151K/N90K/P208A/P217A/Q86G/Q94H/R138H/R169H/T345S)
- Type: binding
- Parameters: scale not given here
Rule: A2.1 Binding of 0.05 or more gives rule met; anything lower gives rule not met.

- sequence_data: "ELKKVSVL"
  label: "rule not met"
- sequence_data: "LMCRYTPRL"
  label: "rule not met"

Exercise: Does the reported A2.1 Binding for "YLYRLNFCL" fall at or above the 0.05 mark?
Key: rule met

Exercise: Is A2.1 Binding for "AMSFTFTTL" at or above 0.05?
Key: rule not met

Exercise: Quick check, A2.1 Binding >= 0.05? "MMWFVVLTV"
Key: rule met

Exercise: Is A2.1 Binding at least 0.05? Consider "ELSIFRERL"
Key: rule not met

Exercise: Is reported A2.1 Binding greater than or equal to 0.05 here: "RLQPNVPLV"
Key: rule not met

Exercise: Threshold query (A2.1 Binding >= 0.05) on "LLLCRLPFL"
Key: rule met

Exercise: Decide: is the reported value of A2.1 Binding for "AMLTACVEV" equal to or greater than 0.05?
Key: rule met

Exercise: Entry "DLKQMERVV" : is its A2.1 Binding no less than 0.05?
Key: rule not met

Exercise: // inclusive: A2.1 Binding at least 0.05? input: "GLRQLKGAL"
Key: rule not met

Exercise: Assess whether reported A2.1 Binding for "PMEAVRHPL" sits at 0.05 or higher.
Key: rule not met

Exercise: Evaluate "ELKQTRVNL" : A2.1 Binding at minimum 0.05?
Key: rule not met

Exercise: // inclusive: A2.1 Binding at least 0.05? input: "LMIRGVLEV"
Key: rule met

Exercise: Assess whether reported A2.1 Binding for "YLLLYFSPV" sits at 0.05 or higher.
Key: rule met

Exercise: Is reported A2.1 Binding greater than or equal to 0.05 here: "AMSRNLFRV"
Key: rule met

----------
- study_system: A*2902 (Homo sapiens, UniProt P04439, A270S/D101N/D185E/E176V/E277Q/E87Q/F33T/G231S/H175R/I121M/I218V/I322F/K168Q/L300P/L318F/M331R/P208A/P217A/Q86L/T323A/T345S/V100A/V358M)
- procedure_details: biochemical
- Type: binding
No end group written: not given here.
Here the recorded IC50 is given for each entry.
Give the value, in units of nM, as a plain number.

// known answers, use as guide
- sequence_data: "SFEPIPIHY [Peptide 9015.0001]"
  readout_units: "nM"
  IC50: 9.4
- sequence_data: "DLDDQLIHLY [Peptide 9018.0022]"
  readout_units: "nM"
  IC50: 3.7
- sequence_data: "ITDDSEIAY [Peptide 1593.04]"
  readout_units: "nM"
  IC50: 1440
- sequence_data: "LFDQLIHLY [Peptide 9018.0027]"
  readout_units: "nM"
  IC50: 45
- sequence_data: "FSITNWLWY [Peptide 9015.0008]"
  readout_units: "nM"
  IC50: 37

Exercise: Supply IC50 value. Item: LSEMVQWAY [Peptide 1580.10]
Key: 633

Exercise: Output IC50 of ISNYTDTIY [Peptide 9015.0007]
Key: 141

Exercise: Provide one value: measured IC50 of FGEMVQWAY [Peptide 1580.13]
Key: 81

Exercise: Answer with the recorded IC50 for the sequence listed here: NTDKSLVKY [Peptide 9018.0008]
Key: 5430

Exercise: Determine its reported IC50: SIEWRLRRY [Peptide 9015.0035]
Key: 13100

Exercise: Given the sequence YTPGPGVRY [Peptide 9015.0026] , write its reported IC50.
Key: 1350

----------
- study_system: DR1 (DRB1*0101) (Homo sapiens, UniProt P01903+P01911, A100R/D57E/F55L/F60I/F76Y/I96L/L162R/M171V/P40L/Q125E/R42F/V115G/Y59C)
- procedure_details: biochemical
- Format: binding
property_measured: IC50 (nM)
Quick reminder: number only, in nM, skip the unit.

Reference set, count: 3
- compound: "CC[C@H](C)[C@H](NC(=O)CNC(=O)[C@H](CCC(=O)O)NC(=O)[C@H](Cc1c[nH]cn1)NC(=O)[C@@H](NC(=O)[C@H](Cc1ccc(O)cc1)NC(=O)[C@H](Cc1ccc(O)cc1)NC(=O)[C@H](CC(C)C)NC(=O)CN)C(C)C)C(=O)N[C@@H](CCCNC(=N)N)C(=O)N[C@H](C(=O)N[C@@H](Cc1ccc(O)cc1)C(=O)N[C@@H](Cc1ccccc1)C(=O)N[C@H](C(=O)N[C@@H](CCC(N)=O)C(=O)O)C(C)C)[C@@H](C)O [Peptide 90.0171]"
  experimental_result: 26
- compound: "CC[C@H](C)[C@H](NC(=O)[C@H](Cc1c[nH]c2ccccc12)NC(=O)[C@H](CCC(=O)O)NC(=O)[C@@H]1CCCN1)C(=O)N[C@@H](CCC(N)=O)C(=O)N[C@@H](CCCNC(=N)N)C(=O)N[C@@H](CCC(N)=O)C(=O)N[C@H](C(=O)N[C@H](C(=O)N[C@@H](CC(C)C)C(=O)N[C@@H](CCC(N)=O)C(=O)N[C@@H](Cc1c[nH]cn1)C(=O)N[C@@H](CO)C(=O)N[C@@H](Cc1ccccc1)C(=O)N[C@@H](CC(N)=O)C(=O)O)C(C)C)[C@@H](C)O [Peptide 89.0011]"
  experimental_result: 2260
- compound: "CC[C@H](C)[C@H](NC(=O)[C@H](Cc1c[nH]cn1)NC(=O)[C@H](C)NC(=O)[C@H](Cc1ccc(O)cc1)NC(=O)[C@H](CC(C)C)NC(=O)[C@@H](NC(=O)[C@H](C)NC(=O)[C@@H]1CCCN1C(=O)[C@H](CCCCN)NC(=O)[C@@H](NC(=O)[C@H](CC(C)C)NC(=O)[C@@H](NC(=O)[C@H](CCCCN)NC(=O)[C@@H](N)Cc1ccccc1)[C@@H](C)O)[C@@H](C)CC)[C@@H](C)O)C(=O)N[C@@H](CCC(N)=O)C(=O)O [Peptide 89.0082]"
  experimental_result: 23

Exercise: Give me measured IC50, please, for this compound: CC(C)[C@H](NC(=O)[C@H](CO)NC(=O)[C@@H]1CCCN1C(=O)[C@@H](N)CCCCN)C(=O)N[C@@H](CO)C(=O)N[C@@H](CO)C(=O)N[C@@H](CC(N)=O)C(=O)N[C@@H](CC(N)=O)C(=O)N[C@@H](CO)C(=O)N[C@@H](CCCCN)C(=O)N1CCC[C@H]1C(=O)N[C@H](C(=O)N[C@@H](CCC(=O)O)C(=O)N[C@@H](CC(=O)O)C(=O)N[C@@H](CCCCN)C(=O)O)C(C)C [Peptide 9014.0041]
Key: 946

----------
Reported IC50 is given for each of the following sequences.
- study_system: DR4w4 (DRB1*0401) (Homo sapiens, UniProt P01903+P01911, A100K/A169T/F76Y/I96L/K127E/L162R/M171V/N62H/P40V/Q125Y/R42H/S133A/S149N/S66Y/V115G/V209L/W38E)
- procedure_details: biochemical
- Assay type: binding
No end group written: not given here.
Provide the reading as a plain figure in nM.

# example entries with known answers
- sequence_data: "DRGVLILLLIRFKCG [Peptide 89.0099]"
  IC50 (nM): 1480
- sequence_data: "WKLIRMECAIMYTAR [Peptide 90.0245]"
  IC50 (nM): 328
- sequence_data: "CQAIELQLALEALNK [Peptide 90.0014]"
  IC50 (nM): 450
- sequence_data: "RLNLDNDEDKENNGD [Peptide 90.0144]"
  IC50 (nM): 1780
- sequence_data: "DCKWGVLILALLRYK [Peptide 89.0026]"
  IC50 (nM): 1090

Continue with the next sequence.
Exercise: Note down IC50 recorded for GQVIVCPTSISSNQI [Peptide 89.0185]
Key: 91

----------
- study_system: DRB1*0405 (Homo sapiens, UniProt P01903+P01911, A100R/A169T/D86S/F76Y/I96L/K127E/L162R/M171V/N62H/P40V/Q125Y/R42H/S133A/S149N/S66Y/V115G/V209L/W38E)
- procedure_details: biochemical
- Format: binding
No end group written: not given here.
property_measured: IC50 (µM)
Report only the number, with the unit µM understood.

- sequence_data: "QKCFKKKGITVTVQY [Peptide 90.0026]"
  IC50 [µM]: 2.91

Exercise: Give the measured IC50 for DNDVMDDSEIAYKYA [Peptide 90.0069]
Key: 10.1

Exercise: Give recorded IC50. NCILLYGPANTGKSY [Peptide 89.0087]
Key: 7.34

Exercise: Provide IC50 value for the following sequence: LETIYNSQYSNEKWT [Peptide 1601.03]
Key: 3

Exercise: Provide only the value of recorded IC50 for GKSYFGMSLISFLQG [Peptide 89.0056]
Key: 1.23

Exercise: Note down IC50 recorded for PEWIEQQTVLQHSFD [Peptide 89.0105]
Key: 5.59

Exercise: Input VKFLRYQQIEFVSFL [Peptide 89.0052] , output reported IC50.
Key: 2.77

Exercise: Fill in reported IC50 for this entry: DCKWGVLILALLRYK [Peptide 89.0026]
Key: 1.34

Exercise: Look up and state reported IC50 for AFQVIELQMALETLS [Peptide 89.0181]
Key: 0.252

Exercise: # return recorded IC50 for entry GVYYIKDGDTTYYVQ [Peptide 90.0216]
Key: 7.09

Exercise: Report measured IC50; entry is ITHIGHQVVPPMAVS [Peptide 90.0010]
Key: 17.1
